System: HCT116 cells
Assay: Test of mRNA transfection into cultured cells (luciferase expression)
Type: cell-based, human
Settings: HCT116, 10 ng luciferase mRNA per well, 24 hours after addition; Table 3 (PBS control 560)
Criterion: Mean value of luminescence for 3 wells meeting or surpassing 500000 cps. Met: 1. Not met: -1.

Does the reported Mean value of luminescence for 3 wells for CCCC/C=C\CCCCCCCC(=O)OCC(COC(=O)CCCCCCC/C=C\CCCC)(COC(=O)CCCCCCC/C=C\CCCC)COC(=O)CCCN(C)C fall at or above the 500000 cps mark?
-1

Does the reported Mean value of luminescence for 3 wells for CCCC/C=C\CCCCCCCC(=O)OCC(COC(=O)CCCCCCC/C=C\CCCC)(COC(=O)CCCCCCC/C=C\CCCCCC)COC(=O)CCCCN(C)C fall at or above the 500000 cps mark?
1

---

Assay: Analysis of luciferase mRNA lipid particle composition (Production Example 1)
Format: physicochemical
Conditions: lipid particle composition with luciferase mRNA; RiboGreen
endpoint: Encapsulation ratio
Be sure to follow the number with its unit.

CCCC/C=C\CCCCCCCC(=O)OCC(COC(=O)CCCCCCC/C=C\CCCC)(COC(=O)CCCCCCC/C=C\CCCC)COC(=O)CCCCCN(C)C [Example 3]	96%
CCCC/C=C\CCCCCCCC(=O)OCC(COC(=O)CCCCCCC)(COC(=O)CCCCCCC/C=C\CCCC)COC(=O)CCN(C)C [Example 8]	94%

Please give Encapsulation ratio for each item listed below.
1. CCCC/C=C\CCCCCCCC(=O)OCC(COC(=O)CCCCCCC/C=C\CCCC)(COC(=O)CCCCCCCCC)COC(=O)CCCN(C)C [Example 10]
2. CCCC/C=C\CCCCCCCC(=O)OCC(COC(=O)CCCCCCC/C=C\CCCC)(COC(=O)CCCCCCC/C=C\CCCCCC)COC(=O)CCCN(C)C [Example 4]

1. 84%
2. 97%

---

Test system: HCT116 cells
Test: Test of mRNA transfection into cultured cells (luciferase expression)
Format: cell-based, human
Conditions: HCT116, 10 ng luciferase mRNA per well, 24 hours after addition; Table 3 (PBS control 560)
Mark each entry y if its Mean value of luminescence for 3 wells sits below 400000 cps, and n for all others.

Sample answers from the record:
CCCC/C=C\CCCCCCCC(=O)OCC(COC(=O)CCCCCCC/C=C\CCCC)(COC(=O)CCCCCCC/C=C\CCCC)COC(=O)CCCCN(C)C	n
CCCC/C=C\CCCCCCCC(=O)OCC(COC(=O)CCCCCCC/C=C\CCCC)(COC(=O)CCCCCCCCC)COC(=O)CCCN(C)C	n
CCCC/C=C\CCCCCCCC(=O)OCC(COC(=O)CCCCCCC)(COC(=O)CCCCCCC/C=C\CCCC)COC(=O)CCN(C)C	y
CCCC/C=C\CCCCCCCC(=O)OCC(COC(=O)CCCCCCC/C=C\CCCC)(COC(=O)CCCCCCCCCCC)COC(=O)CCCN(C)C	n

State whether 400000 cps exceeds Mean value of luminescence for 3 wells recorded for CCCC/C=C\CCCCCCCC(=O)OCC(COC(=O)CCCCCCC/C=C\CCCC)(COC(=O)CCCCCCC/C=C\CCCC)COC(=O)CCCCCN(C)C .
n
